# Test system: Rattus norvegicus
# experiment_description: In vivo triglyceride lowering activity when dosed as 0.01 % of the diet
# Type: functional
Lab note: anything with serum triglyceride level, percent of control below 90% is marked condition met; values at 90% or higher are marked condition not met.

compound	assigned_category
CCCCCCCCCCCCCCCCNc1ccc(C(=O)O)cc1 [CETABEN]	condition met
CCCCCCCCCCCCCCCCN(CC(=O)O)c1ccc(C(=O)O)cc1	condition not met
CCCCCCCCCCCCCCCCN(C)c1ccc(C(=O)O)cc1	condition met
CCCCCCCCCCCCCCCCNc1ccc(C(=O)OCCCO)cc1	condition met
CCCCCCCCCCCCCCCCNc1ccc(C2=NCCO2)cc1	condition not met
CCCCCCCCCCCCCCCCNC1CCC(C(=O)O)CC1 (centres undefined)	condition met
CCCCCCCCCCCCCCCCN(C(C)=O)c1ccc(C(OC(C)=O)C(N)=O)cc1 (centres undefined)	condition not met
CCCCCCCCCCCCCCCCNc1ccc(C(=O)OCCO)cc1	condition met
CCCCCCCCCCCCCCCCNc1ccc(C(=O)OCC(C)(C)CO)cc1	condition not met
CCCCCCCCCCCCCCCCNc1ccc(C2SCCCS2)cc1	condition not met
CCCCCCCCCCCCCCCCNc1ccc(C2=NCCCO2)cc1	condition not met
CCCCCCCCCCCCCCCCNc1ccc(C=O)cc1	condition met
CCCCCCCCCCCCCCCCNc1ccc(CO)cc1	condition not met
CCCCCCCCCCCCCCCCNc1ccc(C(=O)O)cc1C	condition met
CCCCCCCCCCCCCCCCNc1ccc(C(=O)NS(=O)(=O)c2ccc(N)cc2)cc1	condition met
CCCCCCCCCCCCCCCCNc1ccc(C(=O)NCC(=O)OCC)cc1	condition met
CCCCCCCCCCCCCCCCNc1ccc(C(=O)OCC(O)CO)cc1.Cl (centres undefined)	condition not met
CCCCCCCCCCCCCCCCNc1csc(C(=O)O)c1	condition not met
CCCCCCCCCCCCCCCCNc1ccc(C(=O)SCCO)cc1	condition met
CCCCCCCCCCCCCCCCNc1ccc(CC(=O)O)cc1	condition met
CCCCCCCCCCCCCCCCNc1ccc(C(=O)NS(=O)(=O)c2ccc(C)cc2)cc1	condition met
CCCCCCCCCCCCCCCCNc1ccc(C(=O)OC2COC(c3ccccc3)OC2)cc1 (centres undefined)	condition not met
CCCCCCCCCCCCCCCCNc1ccc(C(=O)NO)cc1	condition met
